Measured rate of enzymatic cleavage by E. coli PNP accompanies every entry in the list below.
assayedSystem: E. coli PNP (Escherichia coli, UniProt P0ABP8)
Sequence (P0ABP8 whole entry): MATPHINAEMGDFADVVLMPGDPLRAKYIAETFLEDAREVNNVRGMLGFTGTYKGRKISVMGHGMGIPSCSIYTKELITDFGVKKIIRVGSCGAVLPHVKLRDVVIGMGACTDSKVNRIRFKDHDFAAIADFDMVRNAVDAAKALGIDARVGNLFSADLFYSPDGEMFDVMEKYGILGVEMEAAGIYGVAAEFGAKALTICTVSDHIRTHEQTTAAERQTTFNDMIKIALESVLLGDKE
testMethodNotes: Substrate cleavage by wild-type E. coli PNP (HPLC)
Type: biochemical
particulars: 100 micromolar substrate, HPLC separation of base from nucleoside

# annotated cases, reported rate of enzymatic cleavage by E. coli PNP shown
[[record]]
compound = "O=c1[nH]cnc2c1ncn2[C@@H]1O[C@H](CO)[C@@H](O)[C@@H]1O"
result = "61 nanomoles per milligrams per hour"

[[record]]
compound = "Cc1ncnc2c1ncn2[C@@H]1O[C@H]([C@H](C)O)[C@@H](O)[C@H]1O"
result = "915 nanomoles per milligrams per hour"

[[record]]
compound = "Nc1ncnc2c1ncn2[C@@H]1O[C@H](CO)C[C@H]1O [3′-deoxyadenosine (cordycepin), 3′-deoxyadenosine, reference compound]"
result = "<2 nanomoles per milligrams per hour"


Q: Entry "Nc1nc(F)nc2c1ncn2[C@@H]1O[C@@H](CO)[C@@H](O)[C@H]1O" : reported rate of enzymatic cleavage by E. coli PNP = ?
A: 7,800 nanomoles per milligrams per hour
